Where these numbers come from: patent US9932326B2

Toxicities (μM) VERO for assorted compounds
tested on: Vero cells; assay: Cellular toxicity assay, Vero cells; type: cell-based

smiles_representation	target_desc	Toxicities (μM) VERO
COC(=O)N[C@H](C(=O)N1C[C@@H](n2cc(C(=O)OC)nn2)C[C@H]1c1ncc(-c2ccc(-c3ccc(-c4cnc([C@@H]5C[C@H](n6cc(C(=O)OC)nn6)CN5C(=O)[C@@H](NC(=O)OC)C(C)C)[nH]4)cc3)cc2)[nH]1)C(C)C	Vero cells	≥100 µM

Query: Given the compound `COC(=O)N[C@H](C(=O)N1C[C@@H](n2cc(COC(C)=O)nn2)C[C@H]1c1ncc(-c2ccc(-c3ccc(-c4cnc([C@@H]5C[C@H](n6cc(COC(C)=O)nn6)CN5C(=O)[C@@H](NC(=O)OC)C(C)C)[nH]4)cc3)cc2)[nH]1)C(C)C` , what is its reported Toxicities (μM) VERO?
Response: ≥100 µM

Query: Item under review: `COC(=O)N[C@H](C(=O)N1C[C@H](n2cc(-c3ccccc3)nn2)C[C@H]1c1ncc(-c2ccc(-c3ccc(-c4cnc([C@@H]5C[C@@H](n6cc(-c7ccccc7)nn6)CN5C(=O)[C@@H](NC(=O)OC)C(C)C)[nH]4)cc3)cc2)[nH]1)C(C)C` . Reported Toxicities (μM) VERO?
Response: >100 µM

Query: For the compound shown here, `COC(=O)N[C@H](C(=O)N1C[C@@H](SC)C[C@H]1c1ncc(-c2ccc(-c3ccc(-c4cnc([C@@H]5C[C@H](SC)CN5C(=O)[C@@H](NC(=O)OC)C(C)C)[nH]4)cc3)cc2)[nH]1)C(C)C` , give the reported Toxicities (μM) VERO.
Response: 10.9 µM

Query: Bench note: what Toxicities (μM) VERO did `COC(=O)N[C@H](C(=O)N1C[C@H](n2cc([Si](C)(C)C)nn2)C[C@H]1c1ncc(-c2ccc(-c3ccc(-c4cnc([C@@H]5C[C@@H](n6cc([Si](C)(C)C)nn6)CN5C(=O)[C@@H](NC(=O)OC)C(C)C)[nH]4)cc3)cc2)[nH]1)C(C)C` show?
Response: >100 µM

Query: GET /values?readout=Toxicities (μM) VERO&item= `COC(=O)N[C@H](C(=O)N1C[C@H](n2ccnn2)C[C@H]1c1ncc(-c2ccc(-c3ccc(-c4cnc([C@@H]5C[C@@H](n6cc([Si](C)(C)C)nn6)CN5C(=O)[C@@H](NC(=O)OC)C(C)C)[nH]4)cc3)cc2)[nH]1)C(C)C`
Response: >100 µM
